Target: T1, human ASGR-1 (human, UniProt P07306 1-291)
T1 construct: Stably expressed on CHO-S cells (CHO-S:huASGR-1); The method text says human or mouse ASGR-1 cells were used; also called huASGR-1; hASGR-1
T1 sequence: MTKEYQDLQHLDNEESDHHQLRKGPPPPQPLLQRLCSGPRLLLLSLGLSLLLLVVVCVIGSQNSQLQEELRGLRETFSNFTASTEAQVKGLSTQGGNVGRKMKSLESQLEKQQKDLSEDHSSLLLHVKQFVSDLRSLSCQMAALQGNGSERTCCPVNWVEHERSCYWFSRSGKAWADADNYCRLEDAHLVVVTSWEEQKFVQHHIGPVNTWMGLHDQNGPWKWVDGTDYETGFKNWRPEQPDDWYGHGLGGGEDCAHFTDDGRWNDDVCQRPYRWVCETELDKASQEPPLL
Experiment: FACS ligand blocking on CHO-S ASGR-1 cells; labelled ligand biotin-GalNAc-PAA (synthetic sugar)
valueType: % Inhibition (%)
Write the value in % as a bare number.

binder | % Inhibition, %
176H4 (antibody, V domains shown) VH: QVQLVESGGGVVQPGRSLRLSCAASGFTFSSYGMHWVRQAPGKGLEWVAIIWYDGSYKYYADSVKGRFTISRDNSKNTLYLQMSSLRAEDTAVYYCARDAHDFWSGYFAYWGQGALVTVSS VL: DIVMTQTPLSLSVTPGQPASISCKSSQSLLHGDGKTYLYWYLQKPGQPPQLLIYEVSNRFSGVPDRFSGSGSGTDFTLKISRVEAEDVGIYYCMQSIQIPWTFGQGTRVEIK | 79
184E7 (antibody, V domains shown) VH: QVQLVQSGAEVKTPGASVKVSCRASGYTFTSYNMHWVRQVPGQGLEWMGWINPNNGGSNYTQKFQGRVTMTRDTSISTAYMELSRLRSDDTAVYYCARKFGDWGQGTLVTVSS VL: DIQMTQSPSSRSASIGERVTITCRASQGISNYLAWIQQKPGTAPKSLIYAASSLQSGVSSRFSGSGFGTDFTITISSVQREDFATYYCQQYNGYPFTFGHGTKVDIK | 99

From here, focus on the item given below.
Lab note: measured % Inhibition of 7E11 (antibody, V domains shown) VH: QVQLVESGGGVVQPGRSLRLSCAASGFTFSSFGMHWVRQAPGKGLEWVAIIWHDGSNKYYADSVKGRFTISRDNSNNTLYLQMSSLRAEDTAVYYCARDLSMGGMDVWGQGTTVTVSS VL: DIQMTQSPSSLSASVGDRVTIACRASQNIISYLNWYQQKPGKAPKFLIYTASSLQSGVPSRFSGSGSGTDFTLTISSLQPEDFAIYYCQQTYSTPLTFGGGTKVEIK was 37
